- System: HEK293T (UBE3A T485A transfected, BAR Wnt reporter)
- ASSAY_NOTES: Wnt reporter firefly/Renilla luciferase ratio relative to plate median (fold (linear ratio)); higher = more Wnt/beta-catenin reporter activation
- TEST_SETTINGS: concentration: 10 uM; 24 h
The full ranking holds about 1,100 compounds; the median of “Wnt reporter firefly/Renilla luciferase ratio relative to plate median” is about 1.1, and the highest 2% start at about 1.6. What follows is part of a selection rich in the highest values, with near analogues and random picks from the rest.
READOUT_NAME: Wnt reporter firefly/Renilla luciferase ratio
Keep the answer to the number alone.

Consider the reported Wnt reporter firefly/Renilla luciferase ratio for these molecules:
The molecule listed as O=C(O)c1cccc(C(=O)O)c1 shows Wnt reporter firefly/Renilla luciferase ratio equal to 1.24

The molecule listed as CCCN(CCC)C(=O)SCC shows Wnt reporter firefly/Renilla luciferase ratio equal to 1.3

The molecule listed as CC(=O)c1ccccc1 shows Wnt reporter firefly/Renilla luciferase ratio equal to 1.27

The molecule listed as CC(C)(C)c1ccc(O)c(C(C)(C)C)c1 shows Wnt reporter firefly/Renilla luciferase ratio equal to 1.13

The molecule listed as Cl.NCC1(Cc2noc(=O)[nH]2)CCCCC1 shows Wnt reporter firefly/Renilla luciferase ratio equal to 0.857

Next:
The molecule listed as O=c1[nH]c2ccc(S(=O)CCN3CCC(Cc4ccc(F)cc4)CC3)cc2o1 (stereo not given) shows Wnt reporter firefly/Renilla luciferase ratio equal to 0.993

The molecule listed as CCCCCCCCCCCC[N+](C)(C)C.[Cl-] [Dodecyltrimethylammonium chloride] shows Wnt reporter firefly/Renilla luciferase ratio equal to 0.377

The molecule listed as CC(C)(C)c1cccc(C(C)(C)C)c1O shows Wnt reporter firefly/Renilla luciferase ratio equal to 1.3

The molecule listed as CC(C)(C)c1cc(O)c(C(C)(C)C)cc1O shows Wnt reporter firefly/Renilla luciferase ratio equal to 1.13

The molecule listed as COc1ccc(S(=O)(=O)N2C(=O)[C@@](c3ccccc3OC)(N3C[C@H](O)C[C@H]3C(=O)N(C)C)c3cc(Cl)ccc32)c(OC)c1 shows Wnt reporter firefly/Renilla luciferase ratio equal to 0.612
